Items are presented alongside their recorded Cl 026 (C1 inhibitor).
Assay system: activated human C1 (Homo sapiens, UniProt P09871)
Protocol details: Test Code 026 (C1 inhibitor): ability of activated human C1 to destroy fluid phase human C2 in the presence of C4
Assay type: biochemical
Experimental parameters: Table I; two-fold serial dilution assay, higher well number indicates higher activity

The cases that follow already have their Cl 026 (C1 inhibitor) on record.
Molecule: Cc1ccc(C(=O)Nc2ccc(S(=O)(=O)O)c3cc(S(=O)(=O)O)cc(S(=O)(=O)O)c23)cc1NC(=O)c1cc(NC(=O)Nc2cc(C(=O)O)cc(C(=O)Nc3cc(C(=O)Nc4ccc(S(=O)(=O)O)c5cc(S(=O)(=O)O)cc(S(=O)(=O)O)c45)ccc3C)c2)cc(C(=O)O)c1
Assay system: activated human C1 (Homo sapiens, UniProt P09871)
Reported: +5 Wells
--
Molecule: Cc1ccc(C(=O)Nc2ccc(S(=O)(=O)O)c3cc(S(=O)(=O)O)cc(S(=O)(=O)O)c23)cc1NC(=O)c1cccc(NC(=O)Nc2cccc(C(=O)Nc3cc(C(=O)Nc4ccc(S(=O)(=O)O)c5cc(S(=O)(=O)O)cc(S(=O)(=O)O)c45)ccc3C)c2)c1 [Suramin, reference compound]
Assay system: activated human C1 (Homo sapiens, UniProt P09871)
Reported: +4 Wells
--
Molecule: Cc1cc(C)c(S(=O)(=O)Nc2cc(S(=O)(=O)[O-])cc3cc(S(=O)(=O)[O-])cc(S(=O)(=O)[O-])c23)cc1NC(=O)c1ccc(NC(=O)Nc2ccc(C(=O)Nc3cc(S(=O)(=O)Nc4cc(S(=O)(=O)[O-])cc5cc(S(=O)(=O)[O-])cc(S(=O)(=O)[O-])c45)c(C)cc3C)c(S(=O)(=O)[O-])c2)cc1S(=O)(=O)[O-].[Na+].[Na+].[Na+].[Na+].[Na+].[Na+].[Na+].[Na+]
Assay system: activated human C1 (Homo sapiens, UniProt P09871)
Reported: +5 Wells

# get_value(readout='Cl 026 (C1 inhibitor)', item= Cc1ccc(C(=O)Nc2ccc(S(=O)(=O)[O-])c3cc(S(=O)(=O)[O-])cc(S(=O)(=O)[O-])c23)cc1NC(=O)c1ccc(NC(=O)Nc2ccc(C(=O)Nc3cc(C(=O)Nc4ccc(S(=O)(=O)[O-])c5cc(S(=O)(=O)[O-])cc(S(=O)(=O)[O-])c45)ccc3C)c(S(=O)(=O)[O-])c2)cc1S(=O)(=O)[O-].[Na+].[Na+].[Na+].[Na+].[Na+].[Na+].[Na+].[Na+] )
+3 Wells
